The reported numbers originate from patent US20210079083A1.

Molecular target: T1, Human Angiopoietin-2 full-length (hAng2) (human, UniProt O15123 19-496)
T1 construct: The cell assays used full-length hAng2 from R&D Systems; also called human Ang2; A2
T1 sequence: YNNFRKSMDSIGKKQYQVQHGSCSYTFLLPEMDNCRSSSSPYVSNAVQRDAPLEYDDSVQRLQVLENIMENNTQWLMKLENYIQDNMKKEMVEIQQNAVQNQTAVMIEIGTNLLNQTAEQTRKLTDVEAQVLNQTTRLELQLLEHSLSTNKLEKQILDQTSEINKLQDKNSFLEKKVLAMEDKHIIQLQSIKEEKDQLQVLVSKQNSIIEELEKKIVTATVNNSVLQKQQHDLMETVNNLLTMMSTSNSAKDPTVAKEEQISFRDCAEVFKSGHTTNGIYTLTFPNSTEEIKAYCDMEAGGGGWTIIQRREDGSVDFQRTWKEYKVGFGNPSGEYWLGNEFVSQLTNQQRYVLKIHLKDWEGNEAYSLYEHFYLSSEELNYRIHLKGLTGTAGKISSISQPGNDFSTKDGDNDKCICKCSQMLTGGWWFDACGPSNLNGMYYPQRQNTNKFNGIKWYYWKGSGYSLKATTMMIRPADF
Assay: BLI (Octet), antibody fixed on AR2G sensor, hAng2 3.125-50 nM in solution, 1:1 global fit
Readout Label: Kd
Answer with the number, then the unit.

### Prompt Please look up its Kd: humanized anti-Ang2 antibody 2C8H51 (antibody, V domains shown, Full-length human IgG1) VH: QVQLVQSGAEVKKPGASVKVSCKASGYSFTSYWMHWVKQAPGQGLEWIGMIDPSDSETRLNQKFKDKASLTVDTSTSTVYMELSSLRSEDTAVYYCARRFYYGSDWYFDVWGQGTLVTVSS VL: DIQLTQSPSFLSASVGDRVTITCKASQDVGTAVAWYQQKPGKAPKLLIYWASTRHTGVPSRFSGSGSGTEFTLTISSLQPEDFATYYCQQYSSYPLTFGQGTKVEIK
### Response 0.137 nM

### Prompt Form field: reported Kd of humanized anti-Ang2 antibody 2C8H31 (antibody, V domains shown, Full-length human IgG1) VH: QVQLVQSGAEVKKPGASVKVSCKASGYSFTSYWMHWVRQAPGQGLEWIGMIDPSDSETRLNQKFKDKASMTRDTSTSTVYMELSSLRSEDTAVYYCARRFYYGSDWYFDVWGQGTLVTVSS VL: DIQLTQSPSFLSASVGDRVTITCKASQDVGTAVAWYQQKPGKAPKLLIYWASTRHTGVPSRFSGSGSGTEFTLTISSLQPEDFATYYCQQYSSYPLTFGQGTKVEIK
### Response 0.266 nM

### Prompt Reported Kd for humanized anti-Ang2 antibody 2C8H53 (antibody, V domains shown, Full-length human IgG1) VH: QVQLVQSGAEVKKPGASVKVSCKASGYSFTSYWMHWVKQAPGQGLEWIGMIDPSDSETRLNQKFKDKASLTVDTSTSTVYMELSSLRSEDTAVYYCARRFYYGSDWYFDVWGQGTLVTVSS VL: DIQLTQSPSFLSASVGDRVSITCKASQDVGTAVAWYQQKPGKAPKLLIYWASTRHTGVPDRFSGSGSGTEFTLTISSLQPEDFADYFCQQYSSYPLTFGQGTKVEIK : what is it?
### Response 0.384 nM
